- Assay Name: MultiTox-Fluor Cytotoxicity Assay - LYMP1-002 - Dead Cells (AID 960); further: nearly all actives have a fitted effect of over 60% in size
- Test Context: LYMP1-002 lymphoblastoid cells, dead-cell protease fluorescence; series mostly up to 46.1 µM
Records with an inconclusive call do not appear. Activity calls are given as the source filed them. The call rests on the fitted dose curve; in most records, active means well fitted cell-killing curve with a large enough effect; inconclusive means small, poorly fitted or top-dose-only effect, or effect the other way; inactive means no such curve, though single readings can be large or run the other way.
Labels: 1.0 for active, 0.0 for inactive

- Compound: "Nc1ccccc1C(=O)OCCc1ccccc1"
  Category Label: 0.0
- Compound: "O=Nc1ccc(Nc2ccccc2)cc1"
  Category Label: 1.0
- Compound: "O=c1n(CC2CO2)c(=O)n(CC2CO2)c(=O)n1CC1CO1 (stereo not drawn)"
  Category Label: 1.0
- Compound: "COP(=O)(OC)O/C(=C\\Cl)c1cc(Cl)c(Cl)cc1Cl"
  Category Label: 0.0
- Compound: "CCCCCCCCn1sccc1=O"
  Category Label: 1.0
- Compound: "[Cd+2].[Cl-].[Cl-]"
  Category Label: 0.0
- Compound: "c1cc(OCC2CO2)cc(OCC2CO2)c1 (stereo not drawn)"
  Category Label: 1.0
- Compound: "CC(=O)[O-].CC(=O)[O-].O.O.[Cd+2]"
  Category Label: 0.0
- Compound: "O=[N+]([O-])C(Br)Br"
  Category Label: 0.0
- Compound: "C#CCO"
  Category Label: 0.0
- Compound: "O=C(CCl)c1ccccc1"
  Category Label: 1.0
- Compound: "N#CSCSC#N"
  Category Label: 1.0
- Compound: "c1ccc2cc3c(cc2c1)-c1cccc2cccc-3c12"
  Category Label: 0.0
- Compound: "FC(F)(F)c1ccc(Cl)cc1"
  Category Label: 0.0
- Compound: "N#CC(Cl)Cl"
  Category Label: 0.0
- Compound: "Oc1c(Br)c(Br)c(Br)c(Br)c1Br"
  Category Label: 0.0
- Compound: "CN(C)c1ccc(N=O)cc1"
  Category Label: 1.0
- Compound: "CC/C(=C(\\c1ccccc1)c1ccc(OCCN(C)C)cc1)c1ccc(O)cc1"
  Category Label: 1.0
